STUDY SYSTEM: Rac GTPase-activating protein 1 (Homo sapiens) (UniProt Q9H0H5)
Sequence (Q9H0H5 whole entry, looked up): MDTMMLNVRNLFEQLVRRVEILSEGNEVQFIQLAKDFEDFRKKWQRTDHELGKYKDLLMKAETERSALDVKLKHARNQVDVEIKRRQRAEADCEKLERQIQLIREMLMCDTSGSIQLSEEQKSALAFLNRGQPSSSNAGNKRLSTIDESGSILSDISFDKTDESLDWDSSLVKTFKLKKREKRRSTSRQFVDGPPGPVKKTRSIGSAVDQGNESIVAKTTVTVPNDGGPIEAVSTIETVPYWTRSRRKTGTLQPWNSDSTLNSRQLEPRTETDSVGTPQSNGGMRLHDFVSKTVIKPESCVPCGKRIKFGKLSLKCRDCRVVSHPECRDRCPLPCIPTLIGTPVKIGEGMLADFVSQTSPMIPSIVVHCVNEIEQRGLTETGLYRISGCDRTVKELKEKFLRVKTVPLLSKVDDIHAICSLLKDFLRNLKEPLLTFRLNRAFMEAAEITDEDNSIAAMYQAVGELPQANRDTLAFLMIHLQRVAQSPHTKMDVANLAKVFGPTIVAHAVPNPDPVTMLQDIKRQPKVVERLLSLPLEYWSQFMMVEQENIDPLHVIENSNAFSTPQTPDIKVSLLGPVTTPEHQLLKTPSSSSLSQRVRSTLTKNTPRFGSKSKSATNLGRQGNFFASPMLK
EXPERIMENT: blockers of MgcRacGAP-driven Rac1 GTP hydrolysis – biochemical, ADP Hunter fluorescence, primary and confirmatory, confirmation (AID 624330);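 note: fluorescence reports GDP produced by GAP-driven GTP hydrolysis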
MEASUREMENT SETUP: MgcRacGAP-stimulated Rac1 GTP hydrolysis, at 30 µM, active compounds read high, GST-tagged Rac1 F28L mutant substrate
Screen size: about 340,000 compounds; about 2,100 (0.62%) were called active. The list is a sample of the results. Measured potencies and affinities stand elsewhere.
MEASURE NAME: inhibition

Param item = Cc1n[nH]c(C)c1N1C(=O)c2cccc3cc(Br)cc(c23)C1=O ; retrieve measured inhibition. 15.9% (inactive)

Same thing, different molecule: Cc1cccc(C)c1NC(=O)Cn1nnc(-c2ccc(N3CCOCC3)cc2)n1 3.65% (inactive)

Would you mind doing COc1ccccc1-c1cn(-c2ccccc2)c(=S)[nH]1 as well? 10.3% (inactive)

Same lookup for CCCC1=NN2C(=N)/C(=C\c3ccc(SCc4ccco4)o3)C(=O)N=C2S1 , please. 60.1% (inactive)

One more molecule: C=CCOC(=O)COc1ccc2c(C)c(C)c(=O)oc2c1C -6.38% (inactive)

Quick one: O=S(=O)(c1ccc2ccccc2c1)N1CCNCC1 11.3% (inactive)

Please give the result for COc1cc(/C=C2/C(=N)N3C=CSC3=NC2=O)ccc1OCCCOc1cc(C)ccc1C too. 4.39% (inactive)

Now try CCS(=O)(=O)C1=NN2C(=N)/C(=C\c3ccc(OC(=O)c4ccco4)c(OC)c3)C(=O)N=C2S1 . 30.5% (inactive)

What would you report for CCCc1cc(-c2ccc(O)c(OCC)c2)c(C#N)c(N)n1 ? -0.99% (inactive)

Another molecule: O=C(Nc1ccccc1SC(=O)c1ccccc1)c1ccccc1 18.6% (inactive)

Also Cc1cc2oc(=O)c(CC(=O)NCCCO)c(C)c2c2occ(C(C)(C)C)c12 , if possible. 4.92% (inactive)

Please answer likewise for COc1ccc(C(=O)Sc2nncc3ccccc23)cc1 -1.75% (inactive)

Please give the result for CCCCN(C)C(=O)C1CCN(CCCc2ccccc2)CC1 too. 21.2% (inactive)

Ok, now COc1ccc(NC(=O)c2cccc(NC3=NC4CS(=O)(=O)CC4S3)c2)cc1Cl (configuration not stated) 10.8% (inactive)

Next molecule up: CCC1=NN2C(=N)/C(=C\c3ccc(SCc4ccco4)o3)C(=O)N=C2S1 45.8% (inactive)

Can you check O=C(Cn1nnc2ccccc21)N/N=C/c1ccco1 next? 10.9% (inactive)

Could you do the same for Nc1c(C(=O)N2CCOCC2)sc(=S)n1-c1ccccc1 , please? 11.6% (inactive)

Try this molecule too: NC(=O)C1CCN(Cc2ccc(OCc3ccccc3)cc2)CC1 21.3% (inactive)

Can you handle N#CC1(N2CCN(C(=O)c3ccccc3)CC2)CCCCC1 next? 8.68% (inactive)

Next molecule: CCCCN(C)C(=O)C1CCN(Cc2cccnc2)CC1 27.6% (inactive)

# repeat for Cc1cn([C@@H](CCCCNC(=O)OC(C)(C)C)C(=O)NCCCCCCCCCCC(=O)N2CCN(C(=O)OC(C)(C)C)CC2)nn1 3.56% (inactive)

Can you check CCN(CC)C(=O)C1CCN(Cc2cccc(OCc3ccccc3)c2)CC1 next? 19.6% (inactive)

====

STUDY SYSTEM: Rac GTPase-activating protein 1 (Homo sapiens)
EXPERIMENT: blockers of MgcRacGAP-driven Rac1 GTP hydrolysis – biochemical, ADP Hunter fluorescence, primary and confirmatory, confirmation (AID 624330);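 note: fluorescence reports GDP produced by GAP-driven GTP hydrolysis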
MEASUREMENT SETUP: MgcRacGAP-stimulated Rac1 GTP hydrolysis, at 30 µM, active compounds read high, GST-tagged Rac1 F28L mutant substrate
The campaign covered roughly 340,000 compounds. About 2,100 (0.62%) were called active. Not all results are given here. Potency and affinity values are given separately.
MEASURE NAME: inhibition (%)
I only need the number, in %, no unit after it.

# query: inhibition of entry CCOC(=O)/C(C#N)=C1/C=Cc2ccccc2N1CC 12.8

Can you check CCOC(=O)C(C#N)=C1CCN(Cc2ccccc2)CC1 next? 11.1

Next compound up: CCN=c1scc(-c2ccco2)n1/N=C/c1ccc(OC)c(O)c1 28

Ok, now CCN=c1scc(-c2ccc(F)cc2)n1/N=C/c1ccccn1 9.08

Further, for O=C(NCCCNC(=O)c1ccco1)c1ccc(Cl)c(Cl)c1 ? 0

Please give the result for CSCCC(NC(=O)c1ccccc1Cl)C(=O)NNC(=O)c1ccncc1 (stereo unspecified) too. 7.49

// same read-out, input: N#CCc1ccc(Oc2ccc([N+](=O)[O-])cn2)cc1 5.55

Next record, please: O=C(CC1CCCC1)N1CCCC(Nc2cccc(F)c2)C1 (stereo unspecified) 7.36

And then O=C1C(CO)C(CO)C(CO)C1CO (stereo unspecified) , what is it? -2.59

Proceed to CCOCCCNC(=O)Cn1cnc2sc(C)c(S(=O)(=O)N3CCN(c4ncccn4)CC3)c2c1=O 2.97

Try the compound CN=c1scc(-c2ccccc2F)n1/N=C/c1ccc(O)c(O)c1O -8.6

====

What inhibition was measured for each of the following?
STUDY SYSTEM: Rac GTPase-activating protein 1 (Homo sapiens)
EXPERIMENT: blockers of MgcRacGAP-driven Rac1 GTP hydrolysis – biochemical, ADP Hunter fluorescence, primary and confirmatory, confirmation (AID 624330);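 note: fluorescence reports GDP produced by GAP-driven GTP hydrolysis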
MEASUREMENT SETUP: MgcRacGAP-stimulated Rac1 GTP hydrolysis, at 30 µM, active compounds read high, GST-tagged Rac1 F28L mutant substrate
About 2,100 (0.62%) of roughly 340,000 compounds were called active. Only a sample is shown. Potency and affinity values are given separately.
Please reply with the bare figure in % and do not write the unit itself.

Fill in the blank: the reported inhibition of COc1ccc(Br)cc1CN1CCN(C(=O)c2ccc(OC)c(OC)c2)CC1 is ____. 21

Proceed to N#Cc1c(-c2ccccc2)nc(N2CCN(Cc3ccccc3)CC2)[nH]c1=O 0.49

Ok, now CC(C)CCNC(=O)c1cccc(C(=O)NCCC(C)C)c1 9.34

Queued: COC(=O)CSc1nc(N)c2c3c(sc2n1)C(c1ccccc1)SC(c1ccccc1)C3 (stereo not given) 6.76

Now try OC1CCN(Cc2cn(Cc3ccccc3)nc2-c2cc3ccccc3o2)CC1 . 5.47

====

STUDY SYSTEM: Rac GTPase-activating protein 1 (Homo sapiens)
EXPERIMENT: blockers of MgcRacGAP-driven Rac1 GTP hydrolysis – biochemical, ADP Hunter fluorescence, primary and confirmatory, confirmation (AID 624330);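 note: fluorescence reports GDP produced by GAP-driven GTP hydrolysis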
MEASUREMENT SETUP: MgcRacGAP-stimulated Rac1 GTP hydrolysis, at 30 µM, active compounds read high, GST-tagged Rac1 F28L mutant substrate
In all, about 340,000 compounds went through this assay and about 2,100 (0.62%) were called active. Not all results are given here. Results with a measured potency or affinity are listed apart.
MEASURE NAME: inhibition (%)
Reply with just the number (in %).

Suppose we examine the molecule COc1ccc(/C(C)=N/Nc2ccc(C(=O)O)cc2)cc1OC ; what inhibition value has been reported? -0.19

Do the same for COc1ccc(Cl)cc1NCCC(O)c1ccc(F)cc1 (stereo unspecified) please 10.5

Next: O=C(NCc1ccc2c(c1)OCO2)Nc1cccc(Cl)c1 11.9

// query: COc1ccc(C(O)CNc2ccc(C)cc2)cc1 (stereo unspecified) 12.6

Can you handle O=C(C[C@@H]1C/C=C/CC[C@@H](Cc2ccc(F)cc2)C(=O)OCCNC1=O)N[C@H](CO)Cc1ccccc1 next? 3.03

Proceed to O=C(NCc1cccc(C(F)(F)F)c1)C1CC(c2ccc(C(F)(F)F)cc2)=NO1 (stereo unspecified) 7.21

====

STUDY SYSTEM: Rac GTPase-activating protein 1 (Homo sapiens) (UniProt Q9H0H5)
EXPERIMENT: blockers of MgcRacGAP-driven Rac1 GTP hydrolysis – biochemical, ADP Hunter fluorescence, primary and confirmatory, confirmation (AID 624330);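 note: fluorescence reports GDP produced by GAP-driven GTP hydrolysis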
MEASUREMENT SETUP: MgcRacGAP-stimulated Rac1 GTP hydrolysis, at 30 µM, active compounds read high, GST-tagged Rac1 F28L mutant substrate
Among all 340,000 compounds or so, about 2,100 (0.62%) were called active. Only a sample is shown. Potency and affinity values are given separately.
Each record's inhibition is compared with low = under 4%, intermediate = from 4% up to 20%, high = 20% and over to give its class.

Bin? Cc1cc(NCCO)c2cc(O)ccc2n1 intermediate

And Clc1cnc(N/N=C/c2ccncc2)c(Cl)c1 ? low

Same for CCN(CC)CCCNC(=O)c1cc(-c2ccc(O)cc2)on1 high

Entry Oc1ccccc1/C=N/Nc1nccnc1Cl please intermediate

And for O=C1NC(=Nc2ccccc2)S/C1=C\c1ccccc1 ? low

For COc1ccc(N2CCN(c3ccc(C(=O)O)cc3[N+](=O)[O-])CC2)cc1 then? high

And O=C(CN1CCc2ccccc2C1)Nc1ccccc1F ? intermediate

Now try O=C(O)c1ccc(/C=N/Nc2ncc(Cl)cc2Cl)cc1 . low

Now give it for Oc1ccc(/C=N/Nc2ccnc3cc(Cl)ccc23)c(O)c1 too. intermediate

Now try CN(C)CCNc1ccc(-c2nn(C)c(=O)c3ccccc23)cc1[N+](=O)[O-] . low

Continue with Clc1nccnc1N/N=C/c1ccc(Br)cc1 intermediate

Please do the same for COc1cc(/C=C2\SC(=Nc3ccc(O)cc3)NC2=O)cc(OC)c1O as well. high
